All values here come from PubChem BioAssay.

experiment: antimalarial activity against Dd2 strain (AID 2302);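 also: 0% = DMSO untreated growth and 100% = chloroquine plus artemisinin killed control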; conditions: P. falciparum Dd2 in RBCs, LDH growth readout, 72 h; at 2 µM
Calls of active or inactive are those of the source.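 The calls were made as follows: active = growth inhibition above 50% at the single 2 µM test dose, taken to imply half-maximal potency below 2 µM; inactive = the rest.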
# valid calls are t = active, f = inactive; nothing else

Prompt: Just curious, what result did CC(C)(C)CCN1CCC(NC(=O)c2ccc(-c3cccc(C(F)(F)F)c3)s2)CC1 get here?
Completion: t

Prompt: Just curious, what result did CC(=O)OC[C@H]1O[C@@H](C#Cc2ccccc2)[C@H](OC(C)=O)[C@@H](OC(C)=O)[C@@H]1OC(C)=O get here?
Completion: t

Prompt: Just curious, what result did COc1ccc(S(=O)(=O)NC2CCN(c3cc(C)nc(Nc4cccc(C#N)c4)n3)CC2)cc1 get here?
Completion: t

Prompt: Just curious, what result did COc1ccc2nccc([C@@H](O)CN3CCC(NCc4cc5cccc(O)c5c(=O)[nH]4)CC3)c2c1 get here?
Completion: t

Prompt: Just curious, what result did COc1ccccc1C1CCN(CCN2CCC(NC(=O)c3ccc(-c4ccc(C#N)cc4)cc3)CC2)CC1 get here?
Completion: f

Prompt: Just curious, what result did COc1ccc(N2CCN(CCCCNC(=O)c3ccc(/C=C/c4ccc(Cl)c(Cl)c4)cc3)CC2)c(OC)c1 get here?
Completion: t

Prompt: Just curious, what result did O=C(NCc1ccccc1)Nc1ccc(-c2cccc(-c3nc4ccc(C(F)(F)F)cc4[nH]3)c2)cc1 get here?
Completion: f

Prompt: Just curious, what result did N#CCCN1CCN(Cc2cccc(-c3ccc(-c4nc5ccc(F)cc5[nH]4)cc3)c2)CC1 get here?
Completion: f

Prompt: Just curious, what result did CCCCNc1cc(NCCCC)c2c(n1)[nH]c1ccccc12 get here?
Completion: t

Prompt: Just curious, what result did O=C(/C=C/c1ccc(Cl)c(Cl)c1)NCCCCCN1CCC(c2c[nH]c3ccccc23)CC1 get here?
Completion: f

Prompt: Just curious, what result did N[C@@H](CCNCc1ccc(-c2cccnc2)cc1)Cc1ccc(F)c(F)c1 get here?
Completion: t

Prompt: Just curious, what result did CCN(CC)CCOc1ccc(C(O)(C#CC(O)(c2ccccc2)c2ccc(OCCN(CC)CC)cc2)c2ccccc2)cc1 (centres undefined) get here?
Completion: t

Prompt: Just curious, what result did COc1cc2nc(NCC3CCCCC3)nc(NCc3ccccc3)c2cc1OC get here?
Completion: t

Prompt: Just curious, what result did CCCc1cc(OC)c(C[C@@H]2c3cc(O)c(Cl)cc3CCN2C)cc1OC get here?
Completion: t

Prompt: Just curious, what result did CN(C)Cc1ccc(-c2cc3c(-c4ccc(CN(C)C)cc4)ccnc3[nH]2)cc1 get here?
Completion: t

Prompt: Just curious, what result did CCN(CC)C(=O)c1cccc(/C=C/c2ccc(-c3c(C)[nH]c(C)c(Cl)c3=O)cc2)c1 get here?
Completion: t

Prompt: Just curious, what result did Clc1cc(Br)ccc1-c1ccc(CNCC2CCNCC2)o1 get here?
Completion: f

Prompt: Just curious, what result did Cc1ccc(CNC(=O)[C@H](CC(C)C)Nc2cc(C)nc(NCc3ccccc3C)n2)cc1 get here?
Completion: f

Prompt: Just curious, what result did O=C(CSc1nc2ccccc2c(=O)n1C1CC1)Nc1cc(C(F)(F)F)ccc1Cl get here?
Completion: t

###

Assign inhibition to each entry below.
biological target: L-lactate dehydrogenase (Plasmodium falciparum (isolate CDC / Honduras)) (UniProt Q27743); assay: PfLDH activity inhibition – cell lysate, 3D7 strain, counter-screen for P. falciparum growth inhibition project (AID 2304);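 also: 0% = vehicle and 100% = reference inhibitor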; conditions: P. falciparum 3D7 crude extract, LDH APAD/NBT absorbance; at 2 µM; active compounds read high
Sequence (Q27743 whole entry, looked up): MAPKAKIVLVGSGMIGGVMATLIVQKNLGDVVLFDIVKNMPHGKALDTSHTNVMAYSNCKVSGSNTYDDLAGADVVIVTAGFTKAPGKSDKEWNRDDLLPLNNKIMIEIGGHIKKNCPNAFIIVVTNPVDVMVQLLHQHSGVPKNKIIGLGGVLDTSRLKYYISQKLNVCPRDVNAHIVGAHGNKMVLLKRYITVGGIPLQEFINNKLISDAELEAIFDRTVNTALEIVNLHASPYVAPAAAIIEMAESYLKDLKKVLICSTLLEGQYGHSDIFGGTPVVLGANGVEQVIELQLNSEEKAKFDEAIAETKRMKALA
Number in %, nothing else.

Prompt: Give recorded inhibition with L-lactate dehydrogenase (Plasmodium falciparum (isolate CDC / Honduras)) (UniProt Q27743) for the following compound: CC(C)c1sc(N2CCN(C)CC2)nc1C(=O)NCCc1ccc(Cl)c(Cl)c1
Completion: -2

Prompt: Give recorded inhibition with L-lactate dehydrogenase (Plasmodium falciparum (isolate CDC / Honduras)) (UniProt Q27743) for the following compound: COc1cc(Cc2cnc(N)nc2N)c2c(c1OC)OC(C)C=C2 (stereo not given)
Completion: 6

Prompt: Give recorded inhibition with L-lactate dehydrogenase (Plasmodium falciparum (isolate CDC / Honduras)) (UniProt Q27743) for the following compound: COc1ccccc1N1CCN(CCCCNC(=O)c2ccc(NC(=O)c3ccc(OC(F)(F)F)cc3)cc2)CC1
Completion: -6

Prompt: Give recorded inhibition with L-lactate dehydrogenase (Plasmodium falciparum (isolate CDC / Honduras)) (UniProt Q27743) for the following compound: O=c1cc(NCCCNCc2ccc(Cl)c(Cl)c2)[nH]c2ccc(Oc3ccccc3)cc12
Completion: 2

Prompt: Give recorded inhibition with L-lactate dehydrogenase (Plasmodium falciparum (isolate CDC / Honduras)) (UniProt Q27743) for the following compound: COc1ccc(CNC(=O)c2cc3c(=O)n4ccccc4nc3n(CCc3ccccc3)c2=N)cc1
Completion: -4

Prompt: Give recorded inhibition with L-lactate dehydrogenase (Plasmodium falciparum (isolate CDC / Honduras)) (UniProt Q27743) for the following compound: CCc1[nH]nc(C(=O)Nc2cccc(N3CCCC3)c2)c1C
Completion: 1

Prompt: Give recorded inhibition with L-lactate dehydrogenase (Plasmodium falciparum (isolate CDC / Honduras)) (UniProt Q27743) for the following compound: CN(Cc1ccncc1)C(Cc1ccccc1)C1CCN(Cc2ccc(O)c(Cl)c2)CC1 (stereo not given)
Completion: -4

Prompt: Give recorded inhibition with L-lactate dehydrogenase (Plasmodium falciparum (isolate CDC / Honduras)) (UniProt Q27743) for the following compound: COc1ccc(NC(=O)/C=C/c2ccccc2Cl)cc1OCCN1CCC(O)(c2ccc(Cl)c(C(F)(F)F)c2)CC1
Completion: -1

Prompt: Give recorded inhibition with L-lactate dehydrogenase (Plasmodium falciparum (isolate CDC / Honduras)) (UniProt Q27743) for the following compound: Fc1ccc2nc(-c3cccc(-c4ccc(CN5CCN(c6ccncc6)CC5)cc4)c3)[nH]c2c1
Completion: 0

Prompt: Give recorded inhibition with L-lactate dehydrogenase (Plasmodium falciparum (isolate CDC / Honduras)) (UniProt Q27743) for the following compound: Nc1ccc2[nH]cc(C3CCN(CCC4CCN(C(=O)/C=C/c5ccc(Cl)c(Cl)c5)CC4)CC3)c2n1
Completion: 0

Prompt: Give recorded inhibition with L-lactate dehydrogenase (Plasmodium falciparum (isolate CDC / Honduras)) (UniProt Q27743) for the following compound: COc1ccc2nccc([C@@H](O)CN3CCC(NC(=O)/C=C/c4ccc5[nH]c(=O)ccc5c4)CC3)c2c1
Completion: 5

Prompt: Give recorded inhibition with L-lactate dehydrogenase (Plasmodium falciparum (isolate CDC / Honduras)) (UniProt Q27743) for the following compound: Cc1cccc(CNc2nc(C)cc(N[C@@H](Cc3ccccc3)C(=O)NC3CCCC3)n2)c1
Completion: -3

Prompt: Give recorded inhibition with L-lactate dehydrogenase (Plasmodium falciparum (isolate CDC / Honduras)) (UniProt Q27743) for the following compound: Cc1sc(CNCCCNc2cc(=O)c3ccccc3[nH]2)c(C(F)(F)F)c1C
Completion: 1

Prompt: Give recorded inhibition with L-lactate dehydrogenase (Plasmodium falciparum (isolate CDC / Honduras)) (UniProt Q27743) for the following compound: Cc1onc(-c2ccccc2)c1-c1nc(NC2CCCC(C)C2)no1 (stereo not given)
Completion: -3

Prompt: Give recorded inhibition with L-lactate dehydrogenase (Plasmodium falciparum (isolate CDC / Honduras)) (UniProt Q27743) for the following compound: Cc1ccc(O)cc1Nc1ccnc2ccc(-c3cccc(CN(C)C)c3)cc12
Completion: 1

Prompt: Give recorded inhibition with L-lactate dehydrogenase (Plasmodium falciparum (isolate CDC / Honduras)) (UniProt Q27743) for the following compound: CCn1ncc2c(NC3CCOCC3)c(CNC(=O)c3ccnn3C)c(C)nc21
Completion: -2

Prompt: Give recorded inhibition with L-lactate dehydrogenase (Plasmodium falciparum (isolate CDC / Honduras)) (UniProt Q27743) for the following compound: O=C(/C=C/c1ccc(F)c(Br)c1)NCCCCCN1CCC(c2c[nH]c3ccccc23)CC1
Completion: -7

Prompt: Give recorded inhibition with L-lactate dehydrogenase (Plasmodium falciparum (isolate CDC / Honduras)) (UniProt Q27743) for the following compound: NC(N)=Nc1nc(-c2cccc(NCCCCCCCCON3C(N)=NC(N)=NC34CCCCC4)c2)cs1
Completion: -2

Prompt: Give recorded inhibition with L-lactate dehydrogenase (Plasmodium falciparum (isolate CDC / Honduras)) (UniProt Q27743) for the following compound: Cc1cccn2c(=O)c3cc(C(=O)NCCc4ccccc4)c(=N)n(CCCOC(C)C)c3nc12
Completion: -3

Prompt: Give recorded inhibition with L-lactate dehydrogenase (Plasmodium falciparum (isolate CDC / Honduras)) (UniProt Q27743) for the following compound: c1cc(CNCCc2ccncc2)cc(-c2ccc(-c3nc4ccccc4[nH]3)cc2)c1
Completion: 5

###

biological target: Calcium-dependent protein kinase 1 (Plasmodium falciparum (isolate 3D7)); assay: PfCDPK1 kinase inhibitors, biochemical, TCAMS library (AID 1159585); conditions: recombinant PfCDPK1, Kinase-Glo ATP depletion luminescence;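 also: inhibitors leave more ATP so luminescence rises with inhibition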
Entries with a potency or affinity are not part of this list. The source made the active and inactive calls. The limit is not given here; nearly all actives have IC50 up to about 0.98 µM.
readoutType: outcome

# annotated cases, reported outcome shown
{"molecule": "OC(CNCc1ccccc1OCc1ccccc1)c1cccc(Br)c1 (centres undefined)", "outcome": "inactive"}
{"molecule": "CC1(C)CC(NCCCCCCCOc2ccc(OCc3ccccc3)cc2)CC(C)(C)N1", "outcome": "inactive"}
{"molecule": "O=c1[nH]c(NCCCCCN2CCC(c3c[nH]c4ccccc34)CC2)ncc1Cc1ccc(Cl)c(Cl)c1", "outcome": "inactive"}
{"molecule": "O=C(Nc1cccc(N2CCC(NCc3cnn(-c4cccc(F)c4)c3)CC2)c1)c1ccncc1", "outcome": "inactive"}
{"molecule": "CCCNCc1ccc(-c2ccc(CN(CCOC)C(=O)c3nn(-c4ccccc4)nc3C)cc2)nc1", "outcome": "inactive"}

Prompt: Name the reported outcome value associated with the molecule COc1ccc(CNc2nccc3ccc(-c4ccc(N)nc4)cc23)cc1
Completion: inactive
